Reference source for all entries: the NIST ThermoML archive (doi:10.1021/je0201976)

- CONDITIONS: Liquid; Direct measurement
I'd be grateful if you could share measured Critical pressure for these entries.
Give bare numbers, in kPa.

{"COMPOUND": "COCC(F)(F)C(F)(F)C(F)(F)F [1,1,1,2,2,3,3-heptafluoro-4-methoxybutane]", "Critical pressure, kPa": 2381}
{"COMPOUND": "FC(F)COC(F)(F)C(F)F [1,1,2,2-tetrafluoro-2-(2,2-difluoroethoxy)ethane]", "Critical pressure, kPa": 3090}
{"COMPOUND": "FC(F)C(F)(F)OCC(F)(F)C(F)(F)F [1,1,1,2,2-pentafluoro-3-(1,1,2,2-tetrafluoroethoxy)propane]", "Critical pressure, kPa": 2244}
{"COMPOUND": "FC(C(F)(F)F)C(F)(F)OCC(F)(F)F (stereo not drawn) [1,1,1,2,3,3-hexafluoro-3-(2,2,2-trifluoroethoxy)propane]", "Critical pressure, kPa": 2233}
{"COMPOUND": "FCC(F)(F)F [1,1,1,2-tetrafluoroethane]", "Critical pressure, kPa": 4051}
{"COMPOUND": "COCC(F)(F)C(F)F [1,1,2,2-tetrafluoro-3-methoxypropane]", "Critical pressure, kPa": 3279}

# per-item lookup of Critical pressure; items listed below
1. CCOC(F)(F)C(F)(F)C(F)(F)C(F)(F)F [1-ethoxy-1,1,2,2,3,3,4,4,4-nonafluorobutane]
2. CC(F)(F)Cl [1-chloro-1,1-difluoroethane]
3. FC(C(F)(F)F)C(F)(F)OCC(F)(F)C(F)(F)F (stereo not drawn)
4. FC(F)OCC(F)(F)C(F)(F)F [difluoromethyl 2,2,3,3,3-pentafluoropropyl ether]
5. FC(F)C(F)(F)COC(F)(F)C(F)F [1,1,2,2-tetrafluoro-3-(1,1,2,2-tetrafluoroethoxy)propane]

1. 1976
2. 4054
3. 1950
4. 2773
5. 2581

# per-item lookup of Critical pressure; items listed below
1. FC(F)C(F)(F)OCC(F)(F)F [2,2,2-trifluoroethyl 1,1,2,2-tetrafluoroethyl ether]
2. FC(F)(F)COCC(F)(F)F [1,1,1-trifluoro-2-(2,2,2-trifluoroethoxy)ethane]

[2713, 2783]
